Tested on: UACC-257 melanoma
Assay: NCI-60 one-dose screen, 48 h
Settings: 10 µM
Protocol: Cells are grown in 96 well plates and exposed to the test compound for 48 hours. Compounds are tested at a single concentration, which is 10^-5 M for most compounds. The reported endpoint is percent growth (GI% or GIPRCNT), where numbers from 0 - 100% represent growth inhibition, and numbers from -100% - 0 represent cell death. For example, a value of 40 represents 60% growth inhibition. A value of 0 means no net growth occurred over the course of the experiment. […]
The panel holds about 83,000 compounds, 20% with a hit somewhere; the sample as a whole holds those more often. The source made the active and inactive calls. Rule for the calls: active = growth percent below 10; inactive = the rest.
Labels: active, inactive

# COMPOUND, TARGET_OF_ASSAY, CLASS
measured = [
    ("C[N+]1(CCCCC[N+]2(C)CCCC2)CCCC1", "UACC-257 melanoma", "inactive"),
    ("Cc1ccc(NCCN(C)CC(C)O)c2c(=O)c3ccc(Cl)cc3sc12 (configuration not stated)", "UACC-257 melanoma", "inactive"),
    ("COc1ccc(-c2cc(-c3ccc(Cl)cc3)nc(SCCCCCCC(=O)NO)n2)cc1OC", "UACC-257 melanoma", "inactive"),
    ("CCOC(=O)c1cc(C(=O)c2cc(OC)c(OC)c(OC)c2)n2ncc3ccccc3c12", "UACC-257 melanoma", "inactive"),
    ("COc1cccc(C2C(C#N)=C(N)Oc3cc(N)ccc32)c1 (configuration not stated)", "UACC-257 melanoma", "inactive"),
    ("CCc1cc(Cl)c(OC)c(C(=O)NCC2CCCN2CC)c1O (configuration not stated)", "UACC-257 melanoma", "inactive"),
    ("COc1ccc(/C(C#N)=C/c2cccc(OC)c2OC)cc1", "UACC-257 melanoma", "inactive"),
    ("O=C1c2ccccc2C(=O)c2c1ccc1c(=O)n(-c3ccccc3C(F)(F)F)nnc21", "UACC-257 melanoma", "active"),
    ("Cc1cc(CC(C)CC(C)(C)C)n(O)c(=O)c1 (configuration not stated) (tested in a mixture with another compound)", "UACC-257 melanoma", "active"),
    ("CN(C)c1nc(N)c2nccnc2n1", "UACC-257 melanoma", "inactive"),
    ("CCN(CC)CCCC(C)Nc1c2ccc(Cl)cc2nc2ccc(OC)cc12 (configuration not stated)", "UACC-257 melanoma", "active"),
    ("O=C(CCCSc1nc(-c2ccc(Cl)cc2)cc(-c2ccc(Cl)cc2)n1)NO", "UACC-257 melanoma", "inactive"),
    ("CCOC(=O)c1cc(C(=O)c2cc(OC)c(OC)c(OC)c2)n2ccc(-c3cc[n+](CC(=O)c4cc(OC)c(OC)c(OC)c4)cc3)cc12", "UACC-257 melanoma", "inactive"),
    ("O=C1c2ccccc2C(=O)c2c1ccc(C(Br)Br)c2Cl", "UACC-257 melanoma", "inactive"),
    ("COc1ccc2nc3cc(Cl)ccc3c(Nc3cc(CN4CCCC4)c(O)c(CN4CCCC4)c3)c2n1", "UACC-257 melanoma", "active"),
    ("COc1cc(-c2nn(-c3cccc(NC(=O)NCCNC(=O)c4cccc(C(F)(F)F)c4)c3)cc2-c2ccncc2)ccc1Cl", "UACC-257 melanoma", "inactive"),
    ("Cc1cccc(N=Cc2ccccc2O)c1C", "UACC-257 melanoma", "inactive"),
]
